Values were extracted from ChEMBL document CHEMBL5244247.

tested on: Leishmania major; assay: Antileishmanial activity against promastigote form of Leishmania major assessed as inhibition of parasite growth by Litchfield-Wilcoxon method; type: functional, organism-based
pIC50: −log10 of the molar value.
Quantity Name: pIC50

Compound	Quantity Name	Value Observed
CC(C)=C1CC[C@H](C)[C@](C)(COc2ccc3ccc(=O)oc3c2)[C@H]1CCC(=O)O [GALBANIC ACID]	pIC50	3.78
CC(C)=CCC/C(C)=C/COc1ccc2ccc(=O)oc2c1	pIC50	4.77

###

test: Selectivity index, ratio of CC50 for cytotoxicity against mouse J774G8 cells to IC50 for antileishmanial activity against intracellular Leishmania amazonensis MHOM/BR/75/Josefa amastigotes infected in BALB/c mouse peritoneal macrophages; assay type: toxicity, cell-based; settings: read-out: Ratio CC50/IC50
molecules and their reported selectivity ratio

Molecule	selectivity ratio
CCC(C)C(=O)c1c(O)c(CCC(C)C)c(O)c2c1OC(=O)CC2c1ccccc1 (configuration not stated)	142
CCC(C)C(=O)c1c(O)c(CC=C(C)C)c(O)c2c(-c3ccccc3)cc(=O)oc12 (configuration not stated)	4.4
